Reference for the values: patent US20190225650A1

System: HRE-bla ME-180 cells
Experiment: Reporter gene assay (HRE-bla ME-180 HIF reporter, GeneBLAzer)
Format: cell-based, human
Conditions: 18 h; at top conc; 24 hrs normoxia
Bridge positions count the residues as written; N and C are the ends. Square brackets hold non-standard residues; d marks the D form. Peptide text beside a SMILES is read from it. Cba = N[C@@H](CC1CCC1)C(=O)O; S5 = C=CCCC[C@](C)(N)C(=O)O; Nle = CCCC[C@H](N)C(=O)O
attribute.measured: 18 h Avg % max inhibition at top conc (HIF Rptr-24 hrs normoxia) (μM)

# molecule, result
data = [
    ("CC[C@H](C)[C@H](NC(=O)[C@H](Cc1ccccc1)NC(C)=O)C(=O)N[C@@H](CC(=O)O)C(=O)N[C@@H](CCC(=O)O)C(=O)N[C@@H](CCC(=O)O)C(=O)N[C@H](C(=O)N[C@@H](CC(C)C)C(=O)N[C@@H](CCSC)C(=O)N[C@@]1(C)CCCC=CCCC[C@@](C)(C(=O)N[C@@H](CCSC)C(=O)N[C@@H](C)C(=O)N[C@@H](CC2CCC2)C(N)=O)NC(=O)[C@H]([C@@H](C)CC)NC(=O)[C@H](C(C)C)NC(=O)[C@H](CC(C)C)NC1=O)C(C)C [SP-237] (Ac-FIDEEVLM[S5]LVI[S5]MA[Cba]-NH2; staple 9-13)", "+++ (≤25 but <50: +++)"),
    ("CCCC[C@H](NC(=O)[C@H](CCC(=O)O)NC(=O)[C@@H](NC(=O)[C@@H](NC(=O)[C@H](CC(C)C)NC(=O)[C@]1(C)CCCC=CCCC[C@](C)(NC(=O)[C@H](CCC(=O)O)NC(=O)[C@H](CC(=O)O)NC(=O)[C@@H](NC(=O)[C@H](Cc2ccccc2)NC(C)=O)[C@@H](C)CC)C(=O)N[C@@H](C(C)C)C(=O)N[C@@H](CC(C)C)C(=O)N[C@@H](C)C(=O)N1)C(C)C)[C@@H](C)CC)C(=O)N[C@@H](C)C(=O)N[C@@H](CC(C)C)C(N)=O [SP-152] (Ac-FIDE[S5]VLA[S5]LVIE[Nle]AL-NH2; staple 5-9)", "+++ (≤25 but <50: +++)"),
]

###

Tested on: HRE-bla ME-180 cells
Assay: Reporter gene assay (HRE-bla ME-180 HIF reporter, GeneBLAzer)
Assay type: cell-based, human
Conditions: 18 h; at top conc; 24 hrs normoxia
attribute.measured: 18 h Avg % max inhibition at top conc (HIF Rptr-24 hrs normoxia) (μM)

# molecule, result
data = [
    ("CCCC[C@@H]1NC(=O)[C@H](CC(C)C)NC(=O)[C@H]([C@@H](C)O)NC(=O)[C@@](C)(NC(=O)[C@H](C)NC(=O)[C@H](CC(=O)O)NC(=O)[C@@H](NC(=O)[C@H](Cc2ccccc2)NC(C)=O)[C@@H](C)CC)CCCC=CCCCC2(CCCC=CCCC[C@](C)(C(=O)N[C@@H](CCCC)C(=O)N[C@@H](C)C(=O)N[C@@H](CC(C)C)C(N)=O)NC(=O)[C@H]([C@@H](C)CC)NC(=O)[C@H](C(C)C)NC(=O)[C@H](CO)NC2=O)NC1=O (stereo partly shown)", "+++ (≤25 but <50: +++)"),
    ("CCCC[C@@H]1NC(=O)[C@H](CC(C)C)NC(=O)[C@H](CC(N)=O)NC(=O)[C@@](C)(NC(=O)[C@H](CCC(=O)O)NC(=O)[C@H](CC(=O)O)NC(=O)[C@@H](NC(=O)[C@H](Cc2ccccc2)NC(C)=O)[C@@H](C)CC)CCCC=CCCCC2(CCCC=CCCC[C@](C)(C(=O)N[C@@H](CCCC)C(=O)N[C@@H](C)C(=O)N[C@@H](CC(C)C)C(N)=O)NC(=O)[C@H]([C@@H](C)CC)NC(=O)[C@H](C(C)C)NC(=O)[C@H](CC(C)C)NC2=O)NC1=O (stereo partly shown)", "+++ (≤25 but <50: +++)"),
]
